Ref: ChEMBL document CHEMBL1201862

Test system: Hs-578T
Assay: NCI tumour cell line growth inhibition, 48 h
Activity calls are given as the source filed them. Cut-off read from the data, not from the text of the source: active = GI50 up to about 1.1 µM and inactive = higher.
Choose the fitting class; nothing outside 1 (active), 0 (inactive) is accepted.

Each compound tested received a call. Report the one for CC(=O)Oc1ccc2c(c1)c1c(=O)oc(C)nc1n2Cc1ccccc1 . 0

Each compound tested received a call. Report the one for Clc1cc(OC23CC4CC(CC(C4)C2)C3)nc(Cl)n1 . 0

Each compound tested received a call. Report the one for O=C(O)C(Cc1cc(I)c(O)c(I)c1)C1CCCCC1 (configuration not stated) . 0

Each compound tested received a call. Report the one for CCOC(=O)c1ccc(NC(=O)O/N=C(/Cl)CC)cc1 . 0

Each compound tested received a call. Report the one for C=C(CO)C(=O)OC1CC(=C)C2CC(O)C(C)C2C2OC(=O)C(=C)C12 (configuration not stated) . 0

Each compound tested received a call. Report the one for CC(C)Nc1n[nH]c(=O)n1C(C)C . 0

Each compound tested received a call. Report the one for Cc1ccccc1OC(C)C(=O)NN1C(=O)CC(=O)N(c2ccc(Cl)cc2)C1=S (configuration not stated) . 0

Each compound tested received a call. Report the one for S=C(Nc1c2c(nc3ccccc13)CCCC2)Nc1c2c(nc3ccccc13)CCCC2 . 0

Each compound tested received a call. Report the one for C=CC/C(C(=O)OC)=C(/C(=O)OC)N(CCC)CCC . 0

Each compound tested received a call. Report the one for CN(C)c1nc(Cl)c2c(-c3ccccc3)c(-c3ccccc3)oc2n1 . 0

Each compound tested received a call. Report the one for CC(C)(C)[Si](C)(C)OCC1OC(n2ccc(=O)[nH]c2=O)C(O[Si](C)(C)C(C)(C)C)/C1=C/C#N (configuration not stated) . 0

Each compound tested received a call. Report the one for COC1(C)OC[C@@]2(C)OC(C)C1(C)C2O[Si](C(C)C)(C(C)C)C(C)C (some centres not stated) . 0

Each compound tested received a call. Report the one for CC1(C)CC(=O)c2c(-c3ccc(Cl)cc3)c(C#N)c(=S)n(C3OC(CO)C(O)C(O)C3O)c2C1 (configuration not stated) . 0

Each compound tested received a call. Report the one for OC12C3C4CC5C(C4[C@@H]1Br)C2[C@@](O)(c1c(F)c(F)c(F)c(F)c1F)C53 (some centres not stated) . 0

Each compound tested received a call. Report the one for CCOC(=O)/C=C(\C(=O)OCC)n1cc(C)c(=O)n(Cc2cn(COCCOC(C)=O)nn2)c1=O . 0

Each compound tested received a call. Report the one for Cc1ccc2sc3ccc(N)cc3c(=O)c2c1 . 0

Each compound tested received a call. Report the one for C1=CCC[C@@H]2CN3CCCC/C=C\CCCC[C@H]4C[C@H](CN(CCCCCCCC1)C4)[C@H]2CC3 . 0

Each compound tested received a call. Report the one for Cc1ccc2c(ccc3c[n+]4ccccc4c(C)c32)c1.[O-][Cl+3]([O-])([O-])[O-] . 0

Each compound tested received a call. Report the one for COC12C=CC(C=C1C#N)CC2.COC12C=CC(CC1)CC2=O (configuration not stated) . 0

Each compound tested received a call. Report the one for COc1cc2c(cc1OCCCCCCCCCCN1C(=O)c3cccc4cccc(c34)C1=O)N=C[C@@H]1CCCN1C2=O . 0

Each compound tested received a call. Report the one for CC1=CN(c2ccccc2)S2=C1c1sc3c(c1N2c1ccc(Br)cc1)CCCC3 (configuration not stated) . 0

Each compound tested received a call. Report the one for O=c1[nH]nc(Cc2ccccc2)n1/N=C/c1ccco1 . 0

Each compound tested received a call. Report the one for NC(=O)C(=CNC(=S)Nc1ccccc1)C(N)=O . 0

Each compound tested received a call. Report the one for Cc1cn(C2CC(N=[N+]=[N-])C(CO)O2)c(=O)n(CCCCO)c1=O (configuration not stated) . 0

Each compound tested received a call. Report the one for COc1ccc(N2C(=O)/C(=C\c3cc(OC)c(OC)c(OC)c3)SC2c2ccccc2)cc1 (configuration not stated) . 0

Each compound tested received a call. Report the one for COC1CC2CCC(C)[C@](O)(O2)C(=O)C(=O)N2CCCCC2C(=O)OC(C(C)CC2CCC(O)C(OC)C2)CC(=O)C(C)C=C(C)C(OC(=O)CN(C)C)C(OC)C(=O)C(C)CC(C)/C=C/C=C/C=C\1C (some centres not stated) . 1

Each compound tested received a call. Report the one for COc1cc([C@@H]2c3cc4c(cc3C[C@H]3COC(=O)[C@@H]32)OCO4)cc(OC)c1OC . 1

Each compound tested received a call. Report the one for COc1cc(OC)nc(Nc2c(C#N)c3nc4ccccc4n3c3ccccc23)n1 . 0

Each compound tested received a call. Report the one for CCC(C)C(NC(=O)C(CCCC[N+](=N)N)NC(=O)C(CCCC[N+](=N)N)NC(=O)c1ccc(OC)cc1)C(=O)NC(CCCC[N+](=N)N)C(=O)N1CCCC1C(=O)NC(CCCCN)C(=O)NC(CC(C)C)C(N)=O (configuration not stated) . 0

Each compound tested received a call. Report the one for COc1ccc(-n2c(C)nc3ccc(/N=C/c4ccccc4)cc3c2=O)cc1 . 0

Each compound tested received a call. Report the one for COc1cc2c(cc1OC)C1c3ccccc3CCCN1CC2 (configuration not stated) . 0

Each compound tested received a call. Report the one for COC1CC(CC2CCC(C)C(C(C)C(=O)O)O2)OC2(OC(C)(C3CCC(C)(C4OC(C5OC(O)(CO)C(C)CC5C)CC4C)O3)CC2C)C1C (configuration not stated) . 1

Each compound tested received a call. Report the one for C[n+]1c(-c2ccccc2)cc2/c(=C\c3ccc([N+](=O)[O-])cc3)c3ccccc3n21 . 0

Each compound tested received a call. Report the one for COc1cc(/C=C2\N=C(c3ccccc3)N(c3nc4c(Cl)cc(Cl)cc4s3)C2=O)ccc1O . 0

Each compound tested received a call. Report the one for C=C1C(=O)O[C@H]2[C@@H]3O[C@@](C)(CC/C=C(\C)CCC[C@@H]2C)[C@H](O)C[C@@H]13 . 0

Each compound tested received a call. Report the one for CCn1ncc(N=O)c1N . 0

Each compound tested received a call. Report the one for Cc1ccc(/C=C/C(=N/NC(=O)N/N=C(/C=C/c2ccc(C)cc2)C(C)(C)CN2CCCCC2)C(C)(C)CN2CCCCC2)cc1 . 0
